src = the Kinase Knowledgebase extract (Sharma et al. 2016)

For UniProt P00533, measured IC50 is reported for the entries below.

Would you please look over these solved cases?
                                chem_smiles   observed_value
0          Cc1cc(Br)ccc1Nc1ncnc(-n2cccc2)n1       > 4.5 mg/L
1  COc1ccc(Nc2ncnc(Nc3ccc(C)c(O)c3)n2)cc1OC       < 0.4 mg/L
2  c1ccc(Cn2ncc3cc(Nc4ncnc(Nc5ncccn5)n4)ccc32)cc1  0.4 to 2.4 mg/L
3  O=c1[nH]c2ccccc2n1-c1ncnc(Nc2cccc(-c3cnco3)c2)n1  0.4 to 2.4 mg/L
4  CC(=O)Nc1ccc(Nc2ncnc(-n3c(N)nc4ccccc43)n2)cc1       > 4.5 mg/L
5  O=C(O)Cc1cccc(Nc2ncnc(Nc3cccc(Br)c3)n2)c1       < 0.4 mg/L

Query :: # returns recorded IC50 (system: UniProt P00533) for `Clc1ncnc(Nc2ccc(OCc3ccccc3)cc2)n1`
Result :: > 4.5 mg/L

Query :: Another molecule to look at: `O=c1[nH]c2ccccc2n1-c1ncnc(Nc2ccc(C(F)(F)F)cc2)n1`
Result :: > 4.5 mg/L

Query :: What about this molecule? `COc1ccc(Nc2ncnc(NCCC#N)n2)cc1OC`
Result :: > 4.5 mg/L

Query :: Thanks! And `COc1cc(Nc2ncnc(-n3c(C)nc4ccccc43)n2)cc(OC)c1OC` ?
Result :: 2.4 to 3.5 mg/L

Query :: Please do the same for `COc1cccc(CCNc2ncnc(Nc3ccc4c(cnn4Cc4ccccc4)c3)n2)c1OC` as well.
Result :: > 4.5 mg/L

----------
- tgt: EGFR (UniProt P00533)
- Sequence (P00533 whole entry, looked up): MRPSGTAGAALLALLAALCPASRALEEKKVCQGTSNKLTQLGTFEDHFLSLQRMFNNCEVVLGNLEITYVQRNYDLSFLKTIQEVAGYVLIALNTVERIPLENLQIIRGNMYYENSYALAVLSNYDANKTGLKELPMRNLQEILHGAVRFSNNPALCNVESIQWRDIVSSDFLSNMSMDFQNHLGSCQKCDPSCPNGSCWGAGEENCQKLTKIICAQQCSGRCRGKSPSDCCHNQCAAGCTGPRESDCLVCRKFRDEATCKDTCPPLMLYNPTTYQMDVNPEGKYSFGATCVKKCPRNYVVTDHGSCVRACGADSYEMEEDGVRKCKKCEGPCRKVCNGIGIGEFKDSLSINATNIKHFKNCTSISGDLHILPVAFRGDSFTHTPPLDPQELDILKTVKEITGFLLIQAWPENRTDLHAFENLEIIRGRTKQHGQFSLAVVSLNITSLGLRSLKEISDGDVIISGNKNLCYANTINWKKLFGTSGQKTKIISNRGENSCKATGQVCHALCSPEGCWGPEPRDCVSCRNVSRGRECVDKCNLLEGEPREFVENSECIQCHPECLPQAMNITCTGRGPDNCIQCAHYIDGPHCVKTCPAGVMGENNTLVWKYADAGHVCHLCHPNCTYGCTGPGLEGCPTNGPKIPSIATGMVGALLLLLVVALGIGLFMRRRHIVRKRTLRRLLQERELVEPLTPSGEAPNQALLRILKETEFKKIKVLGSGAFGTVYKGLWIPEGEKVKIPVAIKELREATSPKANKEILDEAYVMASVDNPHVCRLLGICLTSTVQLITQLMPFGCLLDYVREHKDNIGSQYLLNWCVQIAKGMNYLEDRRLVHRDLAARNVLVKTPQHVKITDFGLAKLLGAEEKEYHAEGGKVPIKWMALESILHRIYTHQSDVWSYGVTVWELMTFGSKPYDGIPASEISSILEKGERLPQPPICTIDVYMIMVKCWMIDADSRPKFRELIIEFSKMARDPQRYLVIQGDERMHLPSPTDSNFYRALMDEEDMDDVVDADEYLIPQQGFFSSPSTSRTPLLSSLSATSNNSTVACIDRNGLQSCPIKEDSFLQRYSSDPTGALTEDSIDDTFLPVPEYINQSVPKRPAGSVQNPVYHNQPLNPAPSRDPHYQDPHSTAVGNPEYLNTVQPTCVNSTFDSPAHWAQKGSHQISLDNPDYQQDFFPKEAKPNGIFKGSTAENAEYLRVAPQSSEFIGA
parameter_measured: IC50

Here's what some known entries look like.
                                chem_smiles    observed_value
0  COc1cc(Nc2ncnc(-n3c(NCc4ccc(OC(F)(F)F)cc4)nc4ccccc43)n2)cc(OC)c1OC       > 4.5 µg/mL
1  COC(=O)c1cccc(Nc2ncnc(-n3c(Cl)nc4ccccc43)n2)c1  2.4 to 3.5 µg/mL
2  CN(C)CCNc1ncnc(Nc2ccc3c(cnn3Cc3ccccc3)c2)n1  0.4 to 2.4 µg/mL
3  CCOC(=O)C(Cc1cccc(Nc2ncnc(Nc3cc(-c4ccco4)n[nH]3)n2)c1)(NC(C)=O)C(=O)OCC       > 4.5 µg/mL
4  COc1cc(Nc2ncnc(Nc3cccc(Br)c3)n2)cc(OC)c1OC       < 0.4 µg/mL

Query :: Reported IC50 for `CC(C)(C)OC(=O)NCc1cccc(Nc2ncnc(Nc3cc(C(C)(C)C)n[nH]3)n2)c1` : what is it?
Result :: > 4.5 µg/mL

Query :: Quick one: `CN(c1ccc2c(cnn2Cc2ccccc2)c1)c1ncnc(Nc2cccc(Cc3nnn[nH]3)c2)n1`
Result :: < 0.4 µg/mL

Query :: Next entry: `COc1cc(Nc2ncnc(Nc3cccc4ccccc34)n2)cc(OC)c1OCCN1CCOCC1`
Result :: < 0.4 µg/mL

Query :: Do the same for `COc1cc(Nc2ncnc(-n3c(=O)[nH]c4ccccc43)n2)cc(OC)c1OCCN1CCOCC1` please
Result :: 2.4 to 3.5 µg/mL

----------
Form: system (UniProt P00533), quantity (IC50), values below.

                            compound             tgt  parameter_measured  observed_value
0  CN(c1cccc(Cl)c1)c1ncnc(NCCOCCO)n1  UniProt P00533                IC50     > 4.5 µg/mL

Query :: So what's the measured IC50 for this one? `OCc1cccc(Nc2ncnc(-c3cccnc3Nc3ccccc3)n2)c1`
Result :: 0.4 to 2.4 µg/mL

Query :: `COc1cc(Nc2ncnc(Nc3cc(C(F)(F)F)ccc3F)n2)cc(OC)c1OC` , same question.
Result :: < 0.4 µg/mL

Query :: Same again, this time with COc1cc(Nc2ncnc(-n3c(NC4c5ccccc5CC4O)nc4ccccc43)n2)cc(OC)c1OC (stereo not given)
Result :: > 4.5 µg/mL

Query :: Follow-up item: `CC(C)(C)OC(=O)NCc1cccc(Nc2ncnc(Nc3cc(-c4ccccc4)n[nH]3)n2)c1`
Result :: 2.4 to 3.5 µg/mL

Query :: Also `COc1cc(Nc2ncnc(-c3cccnc3Nc3cccc(C(C)=O)c3)n2)cc(OC)c1OC` ?
Result :: > 4.5 µg/mL

Query :: Would you kindly repeat that for `COc1cc(Nc2ncnc(N[C@H]3CCCc4ccccc43)n2)cc(OC)c1OC` ?
Result :: 3.5 to 4.5 µg/mL

Query :: Okay, and `COc1cc(Nc2ncnc(-c3ccnc(N4CCCCC4)c3)n2)cc(OC)c1OC` ?
Result :: > 4.5 µg/mL

Query :: Then `COc1ccc(Nc2nc3ccccc3n2-c2ncnc(Nc3cc(OC)c(OC)c(OC)c3)n2)cc1OC` ?
Result :: > 4.5 µg/mL

Query :: Now give it for `COc1cc(Nc2ncnc(Nc3cc(-c4ccc(C(=O)N(C)C)cc4)n[nH]3)n2)cc(OC)c1OC` too.
Result :: 0.4 to 2.4 µg/mL
